# Study target: D(2) dopamine receptor (Homo sapiens, UniProt P14416)
# Sequence (P14416 whole entry): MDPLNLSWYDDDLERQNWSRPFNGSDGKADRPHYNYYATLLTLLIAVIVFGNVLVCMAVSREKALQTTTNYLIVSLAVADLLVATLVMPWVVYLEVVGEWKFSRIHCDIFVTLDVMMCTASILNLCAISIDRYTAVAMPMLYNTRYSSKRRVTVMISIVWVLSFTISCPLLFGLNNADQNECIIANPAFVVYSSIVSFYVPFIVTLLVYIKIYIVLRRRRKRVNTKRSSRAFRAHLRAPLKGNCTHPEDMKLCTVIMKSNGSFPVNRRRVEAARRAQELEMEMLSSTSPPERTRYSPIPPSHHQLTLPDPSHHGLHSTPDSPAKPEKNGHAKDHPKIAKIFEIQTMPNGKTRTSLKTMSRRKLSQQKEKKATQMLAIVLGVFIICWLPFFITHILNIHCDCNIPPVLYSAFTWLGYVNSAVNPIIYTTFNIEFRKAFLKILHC
# Measurement notes: Percentage intrinsic activity measured at DA D2 receptor by measuring its ability to […] [3H]-thymidine uptake in CHO-K1 cells transfected with the Dopamine receptor D2
# Type: cell-based
Recorded Intrinsic activity, one value per entry.

Some solved entries appear below for comparison.
{"Smiles data": "c1ccc(N2CCN(CC[C@H]3CC[C@H](Nc4ncccn4)CC3)CC2)cc1", "Observed result": "60%"}
{"Smiles data": "COc1ccccc1N1CCN(CC[C@H]2CC[C@H](Nc3ncccn3)CC2)CC1", "Observed result": "8%"}
{"Smiles data": "Fc1ccc(N2CCN(CC[C@H]3CC[C@H](Nc4ncccn4)CC3)CC2)cc1", "Observed result": "5%"}

Lab note: next compound to report on.
Request the reported Intrinsic activity associated with `c1ccc(N2CCN(CC[C@H]3CC[C@H](Nc4ncccn4)CC3)CC2)nc1`
41%
